// provenance: paper PMC4336329

Target: human ether-à-go-go-related gene (hERG) potassium channel (human, UniProt Q12809);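 further: peak tail current of the secondary pulse compared with the same well before compound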
Sequence (Q12809 whole entry, looked up): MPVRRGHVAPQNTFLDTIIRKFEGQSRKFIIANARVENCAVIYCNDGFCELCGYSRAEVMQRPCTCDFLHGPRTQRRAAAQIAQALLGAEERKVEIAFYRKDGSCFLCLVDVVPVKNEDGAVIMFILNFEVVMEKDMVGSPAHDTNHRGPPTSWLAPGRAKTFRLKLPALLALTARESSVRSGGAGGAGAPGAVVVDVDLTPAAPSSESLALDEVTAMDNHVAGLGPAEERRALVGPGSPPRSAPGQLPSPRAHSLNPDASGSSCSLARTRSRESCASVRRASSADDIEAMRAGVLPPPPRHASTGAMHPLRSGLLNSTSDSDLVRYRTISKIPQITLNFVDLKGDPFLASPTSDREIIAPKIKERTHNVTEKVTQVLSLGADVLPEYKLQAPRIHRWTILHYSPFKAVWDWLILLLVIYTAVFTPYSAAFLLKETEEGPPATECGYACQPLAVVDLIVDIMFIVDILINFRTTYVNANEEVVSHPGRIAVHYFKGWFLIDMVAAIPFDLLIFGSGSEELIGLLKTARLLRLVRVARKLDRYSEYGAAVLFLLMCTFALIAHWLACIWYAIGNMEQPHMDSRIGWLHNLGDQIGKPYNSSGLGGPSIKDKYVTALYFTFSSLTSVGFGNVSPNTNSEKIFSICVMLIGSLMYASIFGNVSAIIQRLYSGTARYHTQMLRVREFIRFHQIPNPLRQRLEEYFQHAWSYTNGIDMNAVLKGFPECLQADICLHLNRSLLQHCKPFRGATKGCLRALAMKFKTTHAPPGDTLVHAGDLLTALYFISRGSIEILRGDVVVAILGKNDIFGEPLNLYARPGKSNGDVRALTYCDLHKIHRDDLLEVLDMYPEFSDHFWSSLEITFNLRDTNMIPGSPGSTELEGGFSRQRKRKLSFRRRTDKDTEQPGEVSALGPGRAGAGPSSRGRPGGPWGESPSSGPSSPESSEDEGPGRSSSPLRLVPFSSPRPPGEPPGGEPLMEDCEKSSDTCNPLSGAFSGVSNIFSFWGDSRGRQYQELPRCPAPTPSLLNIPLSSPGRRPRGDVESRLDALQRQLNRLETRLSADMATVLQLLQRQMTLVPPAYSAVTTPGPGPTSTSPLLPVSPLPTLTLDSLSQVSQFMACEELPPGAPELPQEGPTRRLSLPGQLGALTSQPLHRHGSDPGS
Assay: primary screen, population patch clamp on CHO cells stably expressing hERG; higher = less effect of the substance
Experimental: Briefly, Chinese hamster ovary (CHO) cells stably expressing the hERG channel were dislodged from tissue culture flasks and dispensed into PPC plates. […] During the recording, background leak currents were estimated by a 100 ms step to -80 mV from an initial holding potential of -70 mV and subtracted from the subsequent current measurement. The campaign was conducted in two phases using slight differences in recording protocol. […]
Hit rate of the full screen: of about 310,000 compounds, about 14,000 (4.5%) showed an effect of 50% or more. The effect is printed as a negative number. What follows is part of a selection rich in strong results, with near analogues and random picks from the rest.
Attribute: hERG current change (%, negative = inhibition) at 10uM
Form entry: value (%) — number only.

Known hERG current change (%, negative = inhibition) at 10uM results, listed for orientation:
> print(dat)
                                   compound  obs.value
1  COc1ccc(-c2nc(S(=O)(=O)c3ccc(C)cc3)c(N3CCCC3)o2)cc1       17.2
2      Clc1ccc(Cn2ncc3c(N4CCOCC4)ncnc32)cc1      -16.2
3  CC1(C)Cc2c(C#N)c(N3CCN(C(=O)c4ccco4)CC3)nc(-c3ccco3)c2CS1      -21.6
4  COc1cc(C2C(C#N)=C(N)N(c3cccnc3)C3=C2C(=O)CCC3)ccc1O (centres unmarked)        -12
5      O=C(COc1ccc2ccccc2c1)Nc1ccccc1C(=O)O       26.6
6  O=C(CC1C(=O)NCCN1Cc1ccoc1)NCc1cccc(OC(F)(F)F)c1 (centres unmarked)       1.19

Given the entry C=CCSC(CC)(CC)C(N)=O , report its measured hERG current change (%, negative = inhibition) at 10uM.
3.1

// lookup hERG current change (%, negative = inhibition) at 10uM for NNC(=O)c1cc2c(s1)-c1cc(Cl)ccc1SC2
10.3

Which value of hERG current change (%, negative = inhibition) at 10uM has been reported for CN(C)C(=O)c1cc2cc(Br)ccc2s1 in the records?
-3.77

Given the compound CN(C)CCNC(=O)c1cc2c(s1)-c1ccc(Cl)cc1SC2 , what is its reported hERG current change (%, negative = inhibition) at 10uM?
-81.1

Dear colleague, I am looking for the recorded hERG current change (%, negative = inhibition) at 10uM of the following compound: CCCCCCCCN=Cc1c(O)[nH]c(=O)[nH]c1=O
4.9

====

target: human ether-à-go-go-related gene (hERG) potassium channel (human); experiment: primary screen, population patch clamp on CHO cells stably expressing hERG; higher = less effect of the substance;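 further: peak tail current of the secondary pulse compared with the same well before compound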
About 14,000 (4.5%) of roughly 310,000 compounds showed an effect of 50% or more. Effects have a minus sign here. The sample as a whole holds a higher share of strong results than the screen did.
Attribute: hERG current change (%, negative = inhibition) at 10uM
Unit % implied. Number only.

> print(dat)
                                   compound  obs.value
1  COc1ccc(C(=O)Nc2ccnn2C2CCN(C(C)CSC)CC2)cc1 (stereo not shown)       1.28

Any idea what its hERG current change (%, negative = inhibition) at 10uM is? The compound is Cc1sc2nc(C3CCCCC3)nc(SCC(=O)N3CC(=O)Nc4ccccc43)c2c1C
52.8
